- assayed system: Protein-arginine deiminase type-4 (Homo sapiens) (UniProt Q9UM07)
- Sequence (Q9UM07 whole entry, looked up): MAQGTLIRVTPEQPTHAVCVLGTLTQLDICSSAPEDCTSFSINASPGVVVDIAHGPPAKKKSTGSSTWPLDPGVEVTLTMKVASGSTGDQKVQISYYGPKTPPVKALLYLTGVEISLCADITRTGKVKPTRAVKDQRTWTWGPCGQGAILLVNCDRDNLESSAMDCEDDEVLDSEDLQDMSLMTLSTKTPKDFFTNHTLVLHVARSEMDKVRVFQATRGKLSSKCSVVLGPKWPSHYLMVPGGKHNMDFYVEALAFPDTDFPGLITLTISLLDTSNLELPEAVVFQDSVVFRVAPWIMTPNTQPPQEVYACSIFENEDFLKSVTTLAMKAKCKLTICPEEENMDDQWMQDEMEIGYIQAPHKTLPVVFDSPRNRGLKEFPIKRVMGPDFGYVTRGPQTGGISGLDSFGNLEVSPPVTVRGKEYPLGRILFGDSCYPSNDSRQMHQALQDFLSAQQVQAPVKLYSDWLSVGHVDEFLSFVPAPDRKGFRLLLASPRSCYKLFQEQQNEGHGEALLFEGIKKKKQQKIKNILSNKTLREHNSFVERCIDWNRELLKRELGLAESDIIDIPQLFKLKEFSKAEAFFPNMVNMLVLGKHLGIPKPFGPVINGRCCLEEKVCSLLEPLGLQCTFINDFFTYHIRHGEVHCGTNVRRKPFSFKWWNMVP
- method notes: protein arginine deiminase 4 enzyme blockade – biochemical, fluorescence polarization, 1536-well format, primary screen (AID 485272);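 note: 0% = PAD4 with RCA probe and DMSO and 100% = probe without PAD4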
- test context: recombinant PAD4, RCA probe fluorescence polarization; at 6.36 µM
Out of some 330,000 compounds screened, about 1,300 (0.39%) were called active.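 Rule for the calls: active = percent inhibition above a cutoff equal to the mean of all tested compounds plus 3 SD (cut at about 15% in these data); inactive = the rest.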 The sample as a whole holds a higher share of actives than the screen did.
Pick one and only one: t (active), f (inactive)

Worked set:
- molecule: "CN1c2ccc(C=O)c3c(C=O)ccc(c23)N(C)C1(C)C"
  assayed system: "Protein-arginine deiminase type-4 (Homo sapiens) (UniProt Q9UM07)"
  category label: "t"
- molecule: "O=C(Cc1c(F)cccc1Cl)Nc1ncc([N+](=O)[O-])s1"
  assayed system: "Protein-arginine deiminase type-4 (Homo sapiens) (UniProt Q9UM07)"
  category label: "f"
- molecule: "CCOc1ccc(C2NC(=S)NC3=C2CCc2ccccc23)cc1 (stereo unspecified)"
  assayed system: "Protein-arginine deiminase type-4 (Homo sapiens) (UniProt Q9UM07)"
  category label: "f"
- molecule: "CCOc1[nH]n(-c2ccc(Cl)cc2)c(=O)c1C=Nc1ccc(O)cc1"
  assayed system: "Protein-arginine deiminase type-4 (Homo sapiens) (UniProt Q9UM07)"
  category label: "t"
- molecule: "CC(=O)Oc1ccccc1C(=O)Nc1ncc([N+](=O)[O-])s1"
  assayed system: "Protein-arginine deiminase type-4 (Homo sapiens) (UniProt Q9UM07)"
  category label: "t"
- molecule: "CO[C@H]1[C@@H]2C=CO[C@@H](O[C@H]3O[C@@H](CO)[C@H](O)[C@@H](O)[C@@H]3O)[C@@H]2[C@@]2(CO)O[C@@H]12"
  assayed system: "Protein-arginine deiminase type-4 (Homo sapiens) (UniProt Q9UM07)"
  category label: "f"
- molecule: "COC(=O)c1ccc(CN2CCCC(C(=O)Nc3cccc(-n4cnnn4)c3)C2)cc1 (stereo unspecified)"
  assayed system: "Protein-arginine deiminase type-4 (Homo sapiens) (UniProt Q9UM07)"
  category label: "f"
- molecule: "CONc1nc2nonc2nc1NOC"
  assayed system: "Protein-arginine deiminase type-4 (Homo sapiens) (UniProt Q9UM07)"
  category label: "f"

What was the test verdict on COC(=O)c1cc(S(=O)(=O)N2CCN(c3cc(C)ccc3C)CC2)c[nH]1 ? f

What was the test verdict on O=C(Nc1ccc(N2CCOCC2)cc1)c1cccc(S(=O)(=O)N2CCOCC2)c1 ? f

---

- assayed system: Protein-arginine deiminase type-4 (Homo sapiens)
- method notes: protein arginine deiminase 4 enzyme blockade – biochemical, fluorescence polarization, 1536-well format, primary screen (AID 485272);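 note: 0% = PAD4 with RCA probe and DMSO and 100% = probe without PAD4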
- test context: recombinant PAD4, RCA probe fluorescence polarization; at 6.36 µM
Out of some 330,000 compounds screened, about 1,300 (0.39%) were called active.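 How the source made its calls: active means percent inhibition above a cutoff equal to the mean of all tested compounds plus 3 SD (cut at about 15% in these data); inactive means the rest.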 Many of the other results were omitted from the sample, so actives are more common in it than they were.
Pick one and only one: Yes (active), No (inactive)

Worked set:
- compound: "CCC(CO)Oc1cc(NC(=O)c2ccc(Cl)cc2)c2ncn(C(C)C)c2c1 (stereo not given)"
  category label: "No"
- compound: "CCC(CO)Oc1cc(NCc2ccccc2)c2ncn(C3CCCC3)c2c1 (stereo not given)"
  category label: "No"
- compound: "CCC(CO)Oc1cc(NC(=O)c2cccc(F)c2)c2ncn(C(C)C)c2c1 (stereo not given)"
  category label: "No"
- compound: "CC(C)n1cnc2c(NCc3ccccc3)cc(OCC3CCN(C)CC3)cc21"
  category label: "Yes"

Please turn your attention to the following entry.
What was the test verdict on CCC(CO)Oc1cc(NC(=O)c2cccc3ccccc23)c2ncn(C(C)C)c2c1 (stereo not given) ? No

---

- assayed system: Protein-arginine deiminase type-4 (Homo sapiens) (UniProt Q9UM07)
- method notes: protein arginine deiminase 4 enzyme blockade – biochemical, fluorescence polarization, 1536-well format, primary screen (AID 485272);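 note: 0% = PAD4 with RCA probe and DMSO and 100% = probe without PAD4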
- test context: recombinant PAD4, RCA probe fluorescence polarization; at 6.36 µM
Screen size: about 330,000 compounds; about 1,300 (0.39%) were called active.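 Rule for the calls: active = percent inhibition above a cutoff equal to the mean of all tested compounds plus 3 SD (cut at about 15% in these data); inactive = the rest.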 The full list was thinned out, with actives kept by preference.
Pick one and only one: active, inactive

Worked set:
- chemical string: "Cc1[nH][nH]c(=O)c1C(c1ccc(-c2ccc(Cl)cc2)o1)c1c(C)[nH][nH]c1=O"
  category label: "active"
- chemical string: "O=C(N/C(=C\\c1ccc([N+](=O)[O-])cc1)C(=O)N1CCCCC1)c1ccco1"
  category label: "inactive"

What was the test verdict on Cc1ccc(Nc2ccccc2N)cc1 ? inactive

What was the test verdict on CCOc1ccc(S(=O)(=O)n2ccnc2)c2ccccc12 ? inactive

What was the test verdict on CCOc1ccc(C(c2c(C)[nH][nH]c2=O)c2c(C)[nH][nH]c2=O)cc1OCC ? inactive

---

- assayed system: Protein-arginine deiminase type-4 (Homo sapiens)
- method notes: protein arginine deiminase 4 enzyme blockade – biochemical, fluorescence polarization, 1536-well format, primary screen (AID 485272);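 note: 0% = PAD4 with RCA probe and DMSO and 100% = probe without PAD4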
- test context: recombinant PAD4, RCA probe fluorescence polarization; at 6.36 µM; stronger effect = higher value
Screen size: about 330,000 compounds; about 1,300 (0.39%) were called active. The sample as a whole holds a higher share of actives than the screen did.
experimental readout: inhibition (%)
Answer with a number only, understood to be in %.

Below are worked cases with known answers.
- compound: "CCCN1CC=C2C(C#N)=C(N)C(C#N)(C#N)C(c3cc(OC)ccc3OC)C2C1 (stereo unspecified)"
  inhibition (%): -2.45
- compound: "Cc1ccc(N=C2NC(=O)c3cccc([N+](=O)[O-])c32)cc1"
  inhibition (%): -1.46
- compound: "CCN1CC=C2C(C#N)=C(N)C(C#N)(C#N)[C@H](c3ccoc3)[C@H]2C1"
  inhibition (%): 30.4
- compound: "CCOC(=O)N1CCC(NC(=O)CCc2ccccc2)CC1"
  inhibition (%): 1.67
- compound: "CC[N+](C)(CC)CCC[n+]1c(-c2ccccc2)c2cc(N)ccc2c2ccc(N)cc21"
  inhibition (%): 62.4
- compound: "CC(C)=C1C2CCC1C1C(=O)N(NC(=O)c3ccco3)C(=O)C21 (stereo unspecified)"
  inhibition (%): -4.39
- compound: "NNC(=O)c1oc2nc(-c3ccccc3)cc(-c3ccco3)c2c1N"
  inhibition (%): -6.02
- compound: "Cc1ccc(-c2nn(-c3ccccc3)cc2/C=C/C(=O)Nc2cccc(S(N)(=O)=O)c2)cc1"
  inhibition (%): -9.63

In one line, give reported inhibition of the entry Cc1c(C2=CCN(S(=O)(=O)c3ccc(Cl)cc3)CC2)c2ccccc2n1C . -48.2

In one line, give reported inhibition of the entry O=C(Cn1c2[n+](c3ccc(C(F)(F)F)cc31)CCCCC2)Nc1c(F)cccc1F . -5.07

In one line, give reported inhibition of the entry CCOC(=O)N1CCC(c2cc(=O)n(-c3ccccc3)[nH]2)CC1 . 55.1

In one line, give reported inhibition of the entry CC(=O)c1ccc(S(=O)(=O)NCc2nnnn2-c2ccccc2)cc1 . 7.61

In one line, give reported inhibition of the entry CCCCN(C)CCNC(=O)CSCc1ccc(C)cc1 . -2.21

In one line, give reported inhibition of the entry COc1cnn(-c2ccc([N+](=O)[O-])cc2)c(=O)c1Cl . 3.88

In one line, give reported inhibition of the entry N#CC1=C(N)C(C#N)(C#N)[C@H](c2ccsc2)[C@H]2COCC=C12 . -0.34

In one line, give reported inhibition of the entry COCCOC(=O)c1sc(=S)n(CCOC)c1N . 40.9

In one line, give reported inhibition of the entry CC(=O)c1cccc(-n2nnnc2SCC(=O)NNC(=O)C2CCCCC2)c1 . 0.09

In one line, give reported inhibition of the entry CC(C)C(=O)N1CC(=O)Nc2ccc(F)cc2C1c1ccc(F)cc1 (stereo unspecified) . 4.93

In one line, give reported inhibition of the entry CNC(=S)NNC(=O)c1cccn(Cc2ccccc2)c1=O . -2.2

In one line, give reported inhibition of the entry CN(C)S(=O)(=O)c1cccc(-c2nn(-c3ccccc3)cc2/C=C2\SC(=S)N(CC(=O)O)C2=O)c1 . 29.1

In one line, give reported inhibition of the entry O=C(NC(=S)Nc1cc(C(F)(F)F)ccc1N1CCOCC1)c1ccc(-c2cccc(Cl)c2)o1 . -0.46

---

- assayed system: Protein-arginine deiminase type-4 (Homo sapiens)
- method notes: protein arginine deiminase 4 enzyme blockade – biochemical, fluorescence polarization, 1536-well format, primary screen (AID 485272);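 note: 0% = PAD4 with RCA probe and DMSO and 100% = probe without PAD4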
- test context: recombinant PAD4, RCA probe fluorescence polarization; at 6.36 µM; stronger effect = higher value
About 1,300 (0.39%) of roughly 330,000 compounds were called active. The entries come from a sample that favours actives as a whole.
# Lookup of reported inhibition keyed by entry

- molecule: "CCOc1ccc(S(=O)(=O)N2CCN=C2Cc2ccccc2)cc1C"
  inhibition: "0.37% (inactive)"
- molecule: "O=Cc1c(NCCc2cccc(F)c2)c2ccccc2[nH]c1=O"
  inhibition: "-4.74% (inactive)"

In one line, give reported inhibition of the entry Clc1ccc(-c2cc(COc3ccccc3)no2)cc1Cl . -0.83% (inactive)

In one line, give reported inhibition of the entry COc1ccc(N2CCN(C3CC(=O)N(c4ccc5c(c4)OCCO5)C3=O)CC2)cc1 (stereo unspecified) . -4.31% (inactive)

In one line, give reported inhibition of the entry CSc1ccc(/C=C2\NC(=O)NC2=O)cc1 . -0.37% (inactive)

In one line, give reported inhibition of the entry CCCc1cc(=O)[nH]c(SCC(=O)Nc2ccc(S(=O)(=O)N3CCCC3)cc2)n1 . 5.78% (inactive)

In one line, give reported inhibition of the entry O=C(c1ccc(F)c(S(=O)(=O)N2CCOCC2)c1)N(CCc1ccccc1)Cc1ccccc1 . -3.27% (inactive)

In one line, give reported inhibition of the entry O=C(NC(=S)Nc1ccc(Cl)cc1Cl)C1CC1 . 1.69% (inactive)

The reported measurements were obtained from PubChem BioAssay AID485272.
